Here, each record is paired with measured IC50 data.
Biological target: CDK2/Cyclin E (Homo sapiens, UniProt P24941)
Assay: CDK2/Cyclin E biochemical phosphorylation assay (Caliper mobility shift)
Conditions: apparent IC50; 1.0 mM ATP or ATP Km; 1.25 nM enzyme; 25° C.; read-out: CDK2/cyclin E1 IC50

MOLECULE | IC50
C[C@H](C1CCOCC1)n1ncc2ncc(Nc3cc(OC(F)F)[nH]n3)nc21 [Example 34] | 10 to 20 nM
C[C@H](c1ccccn1)n1ncc2ncc(Nc3cc(OC(F)F)[nH]n3)nc21 [Example 82] | 20 to 30 nM
FC(F)Oc1cc(Nc2cnc3cnn(C[C@H]4C[C@@H]4F)c3n2)n[nH]1 (single isomer, unassigned) [Example 159] | ≤ 10 nM
FC(F)Oc1cc(Nc2cnc3cnn(CC4(F)CCOCC4)c3n2)n[nH]1 [Example 112] | 20 to 30 nM
CC(C)Cn1ncc2ncc(Nc3cc(OC(F)F)[nH]n3)nc21 [Example 100] | 10 to 20 nM
C[C@@H](c1ccccc1)n1ncc2ncc(Nc3cc(OC(F)F)[nH]n3)nc21 [Example 93] | ≤ 10 nM
[2H]C([2H])(c1cccnc1)n1ncc2ncc(Nc3cc(OC(F)F)[nH]n3)nc21 [Example 224] | ≤ 10 nM
C[C@@H](c1ccc(F)cn1)n1ncc2ncc(Nc3cc(OC(F)F)[nH]n3)nc21 [Example 48] | ≤ 10 nM
CC1(Cn2ncc3ncc(Nc4cc(OC(F)F)[nH]n4)nc32)CCOCC1 [Example 110] | ≤ 10 nM
FC(F)Oc1cc(Nc2cnc3c(Cl)nn(CC4CCOCC4)c3n2)n[nH]1 [Example 56] | 10 to 20 nM
